conditions: in acetonitrile, 293.15 K
Metric: solubility (mole fraction)

*Q* Supply reported solubility (mole fraction) belonging to this compound: CNC(=O)c1cc(Oc2ccc(NC(=O)Nc3ccc(Cl)c(C(F)(F)F)c3)c(F)c2)ccn1
*A* 0.000203

====

conditions: in methanol, 308.15 K
Metric: solubility (mole fraction)
The reply should be a number, written without any unit.

*Q* Query solubility (mole fraction) for CNC(=O)c1cc(Oc2ccc(NC(=O)Nc3ccc(Cl)c(C(F)(F)F)c3)c(F)c2)ccn1
*A* 0.000689

====

details: in ethanol, 288.15 K
Metric: solubility (mole fraction)
In your answer, state the number alone without any accompanying words.

*Q* Retrieve solubility (mole fraction) measured for CNC(=O)c1cc(Oc2ccc(NC(=O)Nc3ccc(Cl)c(C(F)(F)F)c3)c(F)c2)ccn1 and print it.
*A* 0.000739
